# System under test: Adenosine receptor A1 (Homo sapiens, UniProt P30542); further: in other assays of this panel Not Active means under 50% inhibition at 10 µM;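 further: radioligand binding assay at the adenosine A1 receptor, with DPCPX serving as the labelled ligand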
# Sequence (P30542 whole entry): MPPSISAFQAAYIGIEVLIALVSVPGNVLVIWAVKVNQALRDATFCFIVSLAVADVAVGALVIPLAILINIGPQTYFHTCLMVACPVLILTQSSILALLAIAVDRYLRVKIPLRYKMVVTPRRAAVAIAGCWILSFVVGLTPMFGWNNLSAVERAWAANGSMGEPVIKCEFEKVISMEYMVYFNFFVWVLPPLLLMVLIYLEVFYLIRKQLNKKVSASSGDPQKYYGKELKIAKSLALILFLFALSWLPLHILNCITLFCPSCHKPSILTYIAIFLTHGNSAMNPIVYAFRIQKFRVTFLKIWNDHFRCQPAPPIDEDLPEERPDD
# Type: cell membranes, CHO, Membrane
# Particulars: cho
Readout type: IC50

Enquiry: Reported IC50, compound Nc1nc(N)nc(-c2cc(Cl)ccc2Cl)n1.O=C(O)/C=C\C(=O)O [IRSOGLADINE MALEATE] : ____
Return: Not Active

Enquiry: Consider next the compound `CC(=O)[C@@]1(O)CC[C@H]2[C@@H]3C[C@H](C)C4=CC(=O)CC[C@]4(C)[C@H]3CC[C@@]21C` in the same way.
Return: Not Active

Enquiry: Try COc1ccc(C[C@H]2NC[C@H](O)[C@H]2OC(C)=O)cc1 [ANISOMYCIN] next.
Return: Not Active

Enquiry: Lookup CC(C)C(Br)C(=O)NC(N)=O (centres undefined) [BROMISOVALUM]
Return: Not Active

Enquiry: Try the compound `c1ccc(Nc2ccc(Nc3ccccc3)cc2)cc1`
Return: Not Active

Enquiry: Would you kindly repeat that for Cc1onc(-c2ccccc2Cl)c1C(=O)N[C@@H]1C(=O)N2[C@@H]1SC(C)(C)[C@@H]2C(=O)O [CLOXACILLIN] ?
Return: Not Active

Enquiry: // same read-out, input: Cc1ccccc1N1C(=O)c2cc(S(N)(=O)=O)c(Cl)cc2NC1C (centres undefined) [METOLAZONE]
Return: Not Active

Enquiry: Quick one: NCCCCCC(=O)O [AMINOCAPROIC ACID]
Return: Not Active

Query compound follows.
Enquiry: # get_value(readout='IC50', item= Nc1nc2ccc(OC(F)(F)F)cc2s1 [RILUZOLE] )
Return: Not Active

---

Here, each record is paired with measured IC50 data.
# System under test: D(1A) dopamine receptor (Homo sapiens)
# Sequence (P21728 whole entry): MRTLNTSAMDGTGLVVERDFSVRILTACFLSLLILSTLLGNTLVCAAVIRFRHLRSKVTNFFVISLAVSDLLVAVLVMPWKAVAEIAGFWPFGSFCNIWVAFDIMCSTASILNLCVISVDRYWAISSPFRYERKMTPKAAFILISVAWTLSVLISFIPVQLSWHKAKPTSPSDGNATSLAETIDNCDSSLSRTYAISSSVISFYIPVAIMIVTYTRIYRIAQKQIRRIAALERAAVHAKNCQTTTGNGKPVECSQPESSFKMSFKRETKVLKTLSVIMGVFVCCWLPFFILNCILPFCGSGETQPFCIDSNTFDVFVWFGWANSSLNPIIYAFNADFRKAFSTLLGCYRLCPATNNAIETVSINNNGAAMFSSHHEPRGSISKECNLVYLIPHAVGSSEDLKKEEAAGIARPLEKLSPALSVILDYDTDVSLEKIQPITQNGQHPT
# Test: DRUGMATRIX: Dopamine D1 radioligand binding (ligand: [3H] SCH-23390)
# Type: cell membranes, CHO, Membrane
# Particulars: Not Active = under 50% inhibition at 10 µM; read-out: IC50
Please respond with the number in nM and leave the unit unwritten.

Solved cases below.
Enquiry: Give recorded IC50 with D(1A) dopamine receptor (Homo sapiens) for the following molecule: CC(C)[C@@]1(NC(=O)[C@@H]2C[C@@H]3c4cccc5[nH]cc(c45)C[C@H]3N(C)C2)O[C@@]2(O)[C@@H]3CCCN3C(=O)[C@H](Cc3ccccc3)N2C1=O.CS(=O)(=O)O [DIHYDROERGOCRISTINE MESYLATE]
Return: 1180

Enquiry: Another molecule to look at: Cc1ccc(-c2cc(C(F)(F)F)nn2-c2ccc(S(N)(=O)=O)cc2)cc1 [CELECOXIB]
Return: 28000

Enquiry: Repeat for the following molecule: CC(C)[C@H]1C(=O)N2CCC[C@H]2[C@]2(O)O[C@](NC(=O)[C@@H]3C=C4c5cccc6[nH]cc(c56)C[C@H]4N(C)C3)(C(C)C)C(=O)N12 [ERGOCORNINE]
Return: 294

Enquiry: What do you get for CC[C@@H](CO)NC(=O)[C@@H]1C=C2c3cccc4[nH]cc(c34)C[C@H]2N(C)C1 [METHYLERGONOVINE] ?
Return: 1080

---
Enquiry: Lab note: need IC50 for CN(C)CCCN1c2ccccc2Sc2ccccc21 [PROMAZINE] on D(1A) dopamine receptor (Homo sapiens), anyone have it?
Return: 2460

Enquiry: Note, next up: CSc1ccc(/C=C2/C(C)=C(CC(=O)O)c3cc(F)ccc32)cc1 [SULINDAC SULFIDE]
Return: 27800

Enquiry: Request: O=C(CCCN1CC=C(n2c(=O)[nH]c3ccccc32)CC1)c1ccc(F)cc1 [DROPERIDOL]
Return: 1090

Data origin: ChEMBL document CHEMBL1909046
